assay: Cytotoxicity against mouse BV-2 cells assessed as cell viability at 10 uM by MTT assay relative to control; format: toxicity, cell-based; settings: read-out: Activity
Listing of entries alongside the reported viability at 10 µM.
readout.type: viability at 10 µM (%)

[[record]]
compound_smiles = "COc1c2n(cc(C(=O)Nc3cccc(-c4cn(-c5ccccc5F)nn4)c3)c1=O)C[C@H]1OC[C@H](C)N1C2=O"
data_value = 63.8

[[record]]
compound_smiles = "COc1c2n(cc(C(=O)Nc3cccc(-c4cn(-c5ccccc5)nn4)c3)c1=O)C[C@@H]1OCC[C@@H](C)N1C2=O"
data_value = 62.3

[[record]]
compound_smiles = "CCc1ccccc1-n1cc(-c2cccc(NC(=O)c3cn4c(c(OC)c3=O)C(=O)N3[C@@H](C)CO[C@@H]3C4)c2)nn1"
data_value = 46.1

[[record]]
compound_smiles = "COc1c2n(cc(C(=O)Nc3cccc(-c4cn(-c5ccccc5C(F)(F)F)nn4)c3)c1=O)C[C@@H]1OCC[C@@H](C)N1C2=O"
data_value = 22.8


====

assay: Cytotoxicity against mouse BV-2 cells assessed as cell viability at 1 uM by MTT assay relative to control; format: toxicity, cell-based; details: read-out: Activity
readout.type: viability at 1 µM (%)

[[record]]
compound_smiles = "COc1c2n(cc(C(=O)Nc3ccc(-c4cn(-c5ccccc5I)nn4)cc3)c1=O)C[C@@H]1OCC[C@@H](C)N1C2=O"
readout_type = "viability at 1 µM"
data_value = 110

[[record]]
compound_smiles = "COc1c2n(cc(C(=O)Nc3cccc(-c4cn(-c5cccc(C(F)(F)F)c5)nn4)c3)c1=O)C[C@H]1OC[C@H](C)N1C2=O"
readout_type = "viability at 1 µM"
data_value = 90.7

[[record]]
compound_smiles = "COc1c2n(cc(C(=O)Nc3cccc(-c4cn(-c5ccccc5Cl)nn4)c3)c1=O)C[C@@H]1OCC[C@@H](C)N1C2=O"
readout_type = "viability at 1 µM"
data_value = 88

[[record]]
compound_smiles = "COc1c2n(cc(C(=O)Nc3cccc(-c4cn(-c5c(C)cc(C)cc5C)nn4)c3)c1=O)C[C@H]1OC[C@H](C)N1C2=O"
readout_type = "viability at 1 µM"
data_value = 94.6

[[record]]
compound_smiles = "COc1c2n(cc(C(=O)Nc3ccc(-c4cn(-c5ccc(F)cc5)nn4)cc3)c1=O)C[C@@H]1OCC[C@@H](C)N1C2=O"
readout_type = "viability at 1 µM"
data_value = 103


====

system: BV-2; assay: Antiinflammatory activity in LPS induced mouse BV-2 cells assessed as NO production at 1 uM by Griess reagent based assay relative to control
Listing of entries alongside the reported level, % of control at 1 µM.
readout.type: level, % of control at 1 µM (%)

[[record]]
compound_smiles = "COc1c2n(cc(C(=O)Nc3cccc(-c4cn(-c5ccccc5Cl)nn4)c3)c1=O)C[C@@H]1OCC[C@@H](C)N1C2=O"
experimental_target = "BV-2"
unit_label = "%"
data_value = 71

[[record]]
compound_smiles = "COc1c2n(cc(C(=O)Nc3ccccc3-c3cn(-c4ccccc4I)nn3)c1=O)C[C@@H]1OCC[C@@H](C)N1C2=O"
experimental_target = "BV-2"
unit_label = "%"
data_value = 107

[[record]]
compound_smiles = "COc1c2n(cc(C(=O)Nc3ccccc3-c3cn(-c4ccccc4F)nn3)c1=O)C[C@@H]1OCC[C@@H](C)N1C2=O"
experimental_target = "BV-2"
unit_label = "%"
data_value = 86.8

[[record]]
compound_smiles = "COc1c2n(cc(C(=O)Nc3ccc(-c4cn(-c5ccc(C(F)(F)F)cc5)nn4)cc3)c1=O)C[C@@H]1OCC[C@@H](C)N1C2=O"
experimental_target = "BV-2"
unit_label = "%"
data_value = 77.9

